Parameter Ki: see the listing below.
measured target: Histamine H4 receptor (Homo sapiens, UniProt Q9H3N8)
Sequence (Q9H3N8 whole entry): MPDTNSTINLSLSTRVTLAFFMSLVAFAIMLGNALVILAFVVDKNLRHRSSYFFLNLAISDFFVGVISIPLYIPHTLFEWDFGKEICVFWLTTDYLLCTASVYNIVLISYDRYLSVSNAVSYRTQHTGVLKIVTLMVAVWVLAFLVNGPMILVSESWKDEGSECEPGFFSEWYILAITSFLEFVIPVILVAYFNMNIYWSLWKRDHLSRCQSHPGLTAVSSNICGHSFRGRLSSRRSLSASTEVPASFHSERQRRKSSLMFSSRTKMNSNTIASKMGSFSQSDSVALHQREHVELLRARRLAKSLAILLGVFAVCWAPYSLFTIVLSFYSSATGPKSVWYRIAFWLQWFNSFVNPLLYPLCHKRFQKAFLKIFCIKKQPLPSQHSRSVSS
assay remarks: Displacement of [3H]histamine from human recombinant histamine H4 receptor

compound	units symbol	Ki
CN[C@@H]1CCN(c2cnnc(NC3CCCC3)c2)C1	nM	6
CCCCNc1nccc(N2CCN(C)CC2)n1	nM	55
CN[C@H]1CCN(c2cnnc(NCC(C)C)c2)C1	nM	389
CCCCNc1cc(N2CC[C@H](NC)C2)ccn1	nM	109
CN1CCN(c2ccnc(NC3CCCC3)c2)CC1	nM	16
CN[C@@H]1CCN(c2cnnc(NCC(C)C)c2)C1	nM	55
CN[C@@H]1CCN(c2ccnc(-c3ccsc3)c2)C1	nM	216
CN[C@H]1CCN(c2cnnc(NC3CCCC3)c2)C1	nM	240
CN[C@@H]1CCN(c2ccnc(NC(C)C)n2)C1	nM	8
CN1CCN(c2ccnc(-c3ccsc3)c2)CC1	nM	21
CN[C@H]1CCN(c2ccnc(NC(C)C)n2)C1	nM	118
CN[C@@H]1CCN(c2ccnc(N3CCCCC3)c2)C1	nM	97
CN[C@H]1CCN(c2ccnc(NC3CC4CCC3C4)c2)C1 (stereo partly drawn)	nM	6

====

measured target: Histamine H4 receptor (Homo sapiens)
assay remarks: Displacement of [3H]histamine from human recombinant histamine H4 receptor
pKi: −log10 of the molar value.

molecule	pKi
CN1CCN(c2ccnc(N3CCCCC3)c2)CC1	6.85
CC(C)c1cc(N2CC[C@@H](N)C2)nc(N)n1 [JNJ-39758979]	7.92
CN[C@@H]1CCN(c2ccnc(NC3CC4CCC3C4)n2)C1 (stereo partly specified)	9.10
CC(C)Nc1nccc(N2CCN(C)CC2)n1	6.93
CCCCNc1cc(N2CCN(C)CC2)ccn1	6.75
CN[C@H]1CCN(c2ccnc(NC3CC4CCC3C4)n2)C1 (stereo partly specified)	8.10
CCCCNc1nccc(N2CC[C@@H](NC)C2)n1	8.52
CN1CCN(c2ccnc(NC3CCCC3)n2)CC1	7.20
CN1CCN(c2cnnc(NC3CC4CCC3C4)c2)CC1 (stereo unspecified)	6.44
CCCCNc1cc(N2CC[C@@H](NC)C2)ccn1	8.15
CC(C)CNc1cc(N2CCN(C)CC2)cnn1	5.00

====

Parameter EC50: see the listing below.
measured target: UniProt Q9H3N8
assay remarks: Agonist activity at human recombinant histamine H4 receptor expressed in SK-N-MC cells assessed as effect on forskolin-stimulated cAMP-mediated reporter gene activity

compound	relation operator	EC50 [nM]
CN[C@@H]1CCN(c2ccnc(NC3CC4CCC3C4)c2)C1 (some centres undefined)	>	10000
CN[C@@H]1CCN(c2ccnc(NC(C)C)c2)C1	=	3160
CN[C@H]1CCN(c2ccnc(NC3CC4CCC3C4)n2)C1 (some centres undefined)	>	10000
CCCCNc1nccc(N2CCN(C)CC2)n1	=	91
CN[C@@H]1CCN(c2ccnc(NC(C)C)n2)C1	=	25
CN[C@@H]1CCN(c2ccnc(NC3CC4CCC3C4)n2)C1 (some centres undefined)	=	3160
CC(C)CNc1nccc(N2CCN(C)CC2)n1	=	84
CCCCNc1cc(N2CC[C@@H](NC)C2)ccn1	=	48
CN[C@@H]1CCN(c2cnnc(NCC(C)C)c2)C1	=	3160
CC(C)Nc1nccc(N2CCN(C)CC2)n1	=	112
CN1CCN(c2ccnc(NC3CCCC3)n2)CC1	=	75
CN1CCN(c2ccnc(NC3CC4CCC3C4)n2)CC1 (centres undefined)	=	20
CN[C@H]1CCN(c2ccnc(NC3CC4CCC3C4)c2)C1 (some centres undefined)	>	10000
CCCCNc1nccc(N2CC[C@@H](NC)C2)n1	=	4

Attribution: ChEMBL document CHEMBL3393002
